target: Nuclear receptor subfamily 1 group D member 1 (Homo sapiens); test: Agonist activity at biotinylated REV-ERBalpha (unknown origin) assessed as increase in biotinylated NCOR peptide recruitment after 1 hr by FRET assay
pEC50: −log10 of the molar value.
Observable: pEC50

Example compounds with recorded pEC50:
Compound: O=[N+]([O-])c1ccc(CN(Cc2ccccc2)Cc2ccc(Cl)cc2)s1
System name: Nuclear receptor subfamily 1 group D member 1 (Homo sapiens)
Observable: pEC50
Quantitative readout: 7.00
--
Compound: Cc1sc(CN(Cc2ccc(Cl)cc2)Cc2cccnc2)cc1Br
System name: Nuclear receptor subfamily 1 group D member 1 (Homo sapiens)
Observable: pEC50
Quantitative readout: 6.60
--
Compound: O=[N+]([O-])c1ccc(CN(Cc2cccnc2)Cc2cccc(C(F)(F)F)c2)s1
System name: Nuclear receptor subfamily 1 group D member 1 (Homo sapiens)
Observable: pEC50
Quantitative readout: 6.40
--
Compound: COc1cccc(CN(Cc2cccnc2)Cc2ccc([N+](=O)[O-])s2)c1
System name: Nuclear receptor subfamily 1 group D member 1 (Homo sapiens)
Observable: pEC50
Quantitative readout: 6.40

I = N#Cc1ccc(CN(Cc2ccc(Cl)cc2)Cc2cccnc2)s1
II = Clc1ccc(CN(Cc2cccnc2)Cc2cc3ccccc3s2)cc1
# input # return whichever of I and II has the smaller pEC50 Your answer should be the label of the entry you select.
# output II

P = N#Cc1ccc(CN(Cc2cccnc2)Cc2ccc(F)c(F)c2)s1
Q = Clc1ccc(CN(Cc2cccnc2)Cc2sccc2-n2cccc2)cc1
# input Between these two entries, P and Q , state which has the higher pEC50. State the label of the item chosen.
# output P
(P: 6.70, Q: 6.20)

I = N#Cc1ccc(CN(Cc2ccc(F)cc2)Cc2cccnc2)s1
II = Cc1cc(Cl)ccc1CN(Cc1ccc(Cl)cc1)Cc1ccc([N+](=O)[O-])s1
# input API: POST /compare with I and II ; response names the item with higher pEC50. Choose, then provide that item's label.
# output II

* * *

species on record: Homo sapiens; assay: Selectivity ratio of IC50 for LXRalpha (unknown origin) to EC50 for biotinylated REV-ERBalpha (unknown origin)
Observable: Ratio IC50/EC50

Query smiles: CC(C)CCN(Cc1ccc(Cl)cc1)Cc1ccc([N+](=O)[O-])s1
Ratio IC50/EC50: 100

Query smiles: O=[N+]([O-])c1ccc(CN(Cc2cccnc2)Cc2cccc(C(F)(F)F)c2)s1
Ratio IC50/EC50: 40

Query smiles: O=[N+]([O-])c1ccc(CN(Cc2ccc(Cl)cc2)Cc2cccnc2)s1
Ratio IC50/EC50: 79

Query smiles: Cc1ccc(CN(Cc2cccnc2)Cc2ccc([N+](=O)[O-])s2)cc1
Ratio IC50/EC50: 250

Query smiles: Cc1cc(Cl)ccc1CN(Cc1ccc(Cl)cc1)Cc1ccc([N+](=O)[O-])s1
Ratio IC50/EC50: 1260

A = Cc1sc(CN(Cc2ccc(Cl)cc2)Cc2cccnc2)cc1Br
B = O=[N+]([O-])c1ccc(CN(Cc2ccc(Cl)cc2)Cc2ccccc2F)s1
# input Compare A and B by numeric Ratio IC50/EC50 and name the larger one. Give the chosen item's label as your response.
# output B

I = Cc1cccc(CN(Cc2cccnc2)Cc2ccc([N+](=O)[O-])s2)c1
II = N#Cc1ccc(CN(Cc2cccnc2)Cc2ccc(F)c(F)c2)s1
# input Task for the reader: decide whether I or II has the larger Ratio IC50/EC50. // return label of chosen record
# output I
(I: 130, II: 79)

1 = Cc1ccccc1CN(Cc1cccnc1)Cc1ccc([N+](=O)[O-])s1
2 = Clc1ccc(CN(Cc2cccnc2)Cc2sccc2-n2cccc2)cc1
3 = CC(C)(C)OC(=O)CN(Cc1ccc(Cl)cc1)Cc1ccc([N+](=O)[O-])s1
4 = Clc1ccc(CN(Cc2cccnc2)Cc2cc3ccccc3s2)cc1
5 = O=[N+]([O-])c1ccc(CN(Cc2ccc(F)cc2)Cc2cccnc2)s1
# input Sort by Ratio IC50/EC50, descending. Kindly provide the labels arranged according to the requested ordering.
# output 5, 1, 4, 2, 3

* * *

Target: Oxysterols receptor LXR-alpha (Homo sapiens, UniProt Q13133)
Sequence (Q13133 whole entry): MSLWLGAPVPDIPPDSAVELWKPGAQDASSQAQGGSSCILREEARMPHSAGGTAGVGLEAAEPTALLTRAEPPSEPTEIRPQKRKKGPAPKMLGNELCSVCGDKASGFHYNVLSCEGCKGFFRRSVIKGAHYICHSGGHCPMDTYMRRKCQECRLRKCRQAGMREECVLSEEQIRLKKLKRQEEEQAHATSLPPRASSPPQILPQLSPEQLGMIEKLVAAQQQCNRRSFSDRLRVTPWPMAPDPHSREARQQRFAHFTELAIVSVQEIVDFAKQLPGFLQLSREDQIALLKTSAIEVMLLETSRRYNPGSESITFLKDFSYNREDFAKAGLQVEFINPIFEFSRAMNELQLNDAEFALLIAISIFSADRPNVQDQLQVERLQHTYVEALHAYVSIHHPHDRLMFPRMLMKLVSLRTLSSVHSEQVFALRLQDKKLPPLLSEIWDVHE
Observable: IC50 (µM)

Query smiles: Cc1sc(CN(Cc2ccc(Cl)cc2)Cc2cccnc2)cc1Br
Unit symbol: µM
IC50: 32
//
Query smiles: N#Cc1ccc(CN(Cc2cccnc2)Cc2ccccc2F)s1
Unit symbol: µM
IC50: 32
//
Query smiles: Clc1ccc(CN(Cc2cccnc2)Cc2sccc2-n2cccc2)cc1
Unit symbol: µM
IC50: 40

1 = O=[N+]([O-])c1ccc(CN(Cc2cccnc2)Cc2cccc(C(F)(F)F)c2)s1
2 = COc1ccc(CN(Cc2cccnc2)Cc2ccc([N+](=O)[O-])s2)cc1
# input 1 or 2 : whose IC50 is greater? Indicate your choice by writing its label.
# output 2
(2: 32 µM, 1: 16 µM)

I = O=[N+]([O-])c1ccc(CN(Cc2ccc(Cl)cc2)Cc2cccnc2)s1
II = O=[N+]([O-])c1ccc(CN(Cc2ccc(F)cc2)Cc2cccnc2)s1
# input Sorting by IC50 in descending order, would I or II appear first? Bench note: the answer is the label of the chosen record.
# output II
(II: 40 µM, I: 13 µM)

* * *

Target: UniProtKB P20393
Sequence (P20393 whole entry): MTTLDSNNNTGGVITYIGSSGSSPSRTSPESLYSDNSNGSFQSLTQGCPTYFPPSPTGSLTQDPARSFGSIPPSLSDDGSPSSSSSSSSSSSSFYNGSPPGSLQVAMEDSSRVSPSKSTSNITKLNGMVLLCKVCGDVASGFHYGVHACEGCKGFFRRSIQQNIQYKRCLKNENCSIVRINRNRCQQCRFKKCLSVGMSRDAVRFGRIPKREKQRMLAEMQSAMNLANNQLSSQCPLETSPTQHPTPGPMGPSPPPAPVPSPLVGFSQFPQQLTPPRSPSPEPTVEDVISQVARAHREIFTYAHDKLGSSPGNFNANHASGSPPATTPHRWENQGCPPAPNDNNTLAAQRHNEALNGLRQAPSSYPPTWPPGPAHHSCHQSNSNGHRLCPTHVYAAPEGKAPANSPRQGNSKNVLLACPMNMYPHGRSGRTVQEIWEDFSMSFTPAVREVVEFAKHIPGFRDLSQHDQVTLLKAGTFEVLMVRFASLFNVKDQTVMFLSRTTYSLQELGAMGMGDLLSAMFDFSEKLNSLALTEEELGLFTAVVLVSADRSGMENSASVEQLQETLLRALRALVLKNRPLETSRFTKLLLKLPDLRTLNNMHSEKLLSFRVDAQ
Test: Agonist activity at biotinylated REV-ERBalpha (unknown origin) assessed as increase in biotinylated NCOR peptide recruitment after 1 hr by FRET assay
Observable: EC50 (nM)

Query smiles: O=[N+]([O-])c1ccc(CN(Cc2ccc(Cl)cc2)Cc2cccnc2)s1
System name: UniProtKB P20393
Quantitative readout: 160
//
Query smiles: O=[N+]([O-])c1ccc(CN(Cc2ccc(Cl)cc2)Cc2ccccc2F)s1
System name: UniProtKB P20393
Quantitative readout: 63
//
Query smiles: N#Cc1ccc(CN(Cc2cccnc2)Cc2cc(F)ccc2F)s1
System name: UniProtKB P20393
Quantitative readout: 630
//
Query smiles: CC(C)CCN(Cc1ccc(Cl)cc1)Cc1ccc([N+](=O)[O-])s1
System name: UniProtKB P20393
Quantitative readout: 160
//
Query smiles: Cc1ccc(CN(Cc2cccnc2)Cc2ccc([N+](=O)[O-])s2)cc1
System name: UniProtKB P20393
Quantitative readout: 160

A = Cc1ccccc1CN(Cc1cccnc1)Cc1ccc([N+](=O)[O-])s1
B = CC(C)(C)OC(=O)CN(Cc1ccc(Cl)cc1)Cc1ccc([N+](=O)[O-])s1
# input Between the two listed entries A and B , which has its EC50 at the higher number? Reply with the label of the item you choose.
# output B
(B: 500 nM, A: 200 nM)

* * *

species: Homo sapiens; test: Selectivity ratio of IC50 for LXRalpha (unknown origin) to EC50 for biotinylated REV-ERBalpha (unknown origin)
Observable: Ratio IC50/EC50

a = COc1ccc(CN(Cc2cccnc2)Cc2ccc([N+](=O)[O-])s2)cc1
b = N#Cc1ccc(CN(Cc2cccnc2)Cc2cc(F)ccc2F)s1
c = COc1cccc(CN(Cc2cccnc2)Cc2ccc([N+](=O)[O-])s2)c1
# input Quick favor: sort the compounds up above by Ratio IC50/EC50, largest first. Return value: ordered labels per request.
# output a, c, b
(a: 160, c: 25, b: 10)
